src = ChEMBL document CHEMBL3085701

MEASUREMENT_NOTES: Half life in Balb-C mouse liver microsomes
Assay type: ADME, Microsome
READOUT: log10 t1/2 (log10 of the value in min)
Hey, these are logged values: log10 of t1/2, min being the unit before logging.

STRUCTURE_SMILES_STRING: O=C(NCCc1ccncc1)C1CCN(C(=O)c2nc3ccccc3n2Cc2ccc(Cl)cc2)CC1
NUMERIC_READOUT: 1.63

Give a short answer stating reported log10 t1/2 for O=C(NCCc1ccncc1)C1CCN(C(=O)c2cc3ccccc3n2Cc2ccc(Cl)cc2)CC1 .
1.06

Specify log10 t1/2 for O=C(NCCc1ccncc1)C1CCN(C(=O)c2cc3ccccc3n2Cc2ccccc2)CC1 and stop.
1.89

Entry O=C(NCCc1ccncc1)C1CCN(C(=O)c2cc3ccncc3n2Cc2ccc(Cl)cc2)CC1 needs its log10 t1/2 filled in; supply it.
0.96

Find the measured log10 t1/2 of O=C(NCCc1ccncc1)C1CCN(C(=O)c2cccn2Cc2ccc(Cl)cc2)CC1 and report it.
0.46
